Test system: Rattus norvegicus
Assay: Anti-inflammatory activity in rat assessed as inhibition of carrageenan-induced paw edema relative to control
Format: functional
For each of the compounds below, state its inhibition (INH).
Number in %, nothing else.

Input: State its inhibition (INH) for this compound: COc1ccccc1C1CC(Nc2ccc3ccccc3c2)=NN1C(C)=O (centres undefined)
Output: 67.85

Input: Return inhibition (INH) for the following compound: O=C(CCNc1c(Br)cc(Br)cc1C(=O)O)Nc1ccc2ccccc2c1
Output: 67.37

Input: Quickly give me recorded inhibition (INH) for COc1ccc2cc([C@H](C)C(=O)O)ccc2c1
Output: 85.02

Input: Output inhibition (INH) of COc1ccc2cc(C(C)C(=O)NC(=S)Nc3ccc(CS(=O)(=O)Nc4cc(C)on4)cc3)ccc2c1 (centres undefined)
Output: 89.77

====

Can you tell me IC50 for the items I'm about to list?
Numeric answer only, unit µM assumed.

Input: Enter measured IC50, system Prostaglandin G/H synthase 2 (Homo sapiens, UniProt P35354), for the compound shown: COc1ccc2cc(CCS(C)(=O)=O)ccc2c1
Output: 10

Input: Quote Prostaglandin G/H synthase 2 (Homo sapiens, UniProt P35354) IC50 for entry CS(=O)(=O)Nc1cc(Cc2ccc(Cl)cc2)c2ccccc2c1 .
Output: 10

====

Assay: Inhibition of Human cytomegalovirus protease
Set-up: species or system Human betaherpesvirus 5
Readout: pIC50
Units for pIC50: none; it is -log10 of a concentration expressed in mol/L.

Input: Retrieve pIC50 measured for O=C(O)c1ccc(CNc2ccc3c(/C=C/c4ccc5ccc(Cl)cc5n4)cccc3c2)cc1 and print it.
Output: 5.57

====

Biological target: Chymase (Homo sapiens, UniProt P23946)
Sequence (P23946 whole entry): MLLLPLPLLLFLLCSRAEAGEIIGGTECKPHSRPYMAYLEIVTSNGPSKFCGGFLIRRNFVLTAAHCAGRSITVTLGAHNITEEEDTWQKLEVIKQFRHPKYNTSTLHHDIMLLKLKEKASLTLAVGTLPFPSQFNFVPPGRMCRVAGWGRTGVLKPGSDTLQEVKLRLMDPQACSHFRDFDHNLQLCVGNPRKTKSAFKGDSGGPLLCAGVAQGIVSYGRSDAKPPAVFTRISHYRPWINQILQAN
Test: Inhibition of chymase in human mast cells using Suc-Ala-Ala-Pro-Phe-(p-nitroanilide) as substrate for 15 mins by spectrophotometric method
Readout: pKi
Please express pKi as -log10 of the molar concentration.

Input: Please report pKi for the following molecule: O=C(c1ccc2ccccc2c1)C(c1cccc2ccccc12)P(=O)(O)O (stereo unspecified)
Output: 8.64
